Measured Bliss excess accompanies every entry in the list below.
- Tested on: LN-405 (Glioblastoma);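 also: after 72 h of two-drug dosing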
- Procedure details: Bliss excess, mean over the matrix (fraction); higher = more synergy
Property label: Bliss excess

CC1(C)CCC(CN2CCN(c3ccc(C(=O)NS(=O)(=O)c4ccc(NCC5CCOCC5)c([N+](=O)[O-])c4)c(Oc4cnc5[nH]ccc5c4)c3)CC2)=C(c2ccc(Cl)cc2)C1 [Venetoclax] + C1CN(CCC1(C(=O)N[C@@H](CCO)C2=CC=C(C=C2)Cl)N)C3=NC=NC4=C3C=CN4 [Capivasertib] (first compound max 1 µM, 7x7, partner max 3 µM); -0.0712
COc1nnc2ccc(N3CCC(c4ccc(OCCN5CCN(C)C(=O)[C@H]5C)cc4)CC3)nn12 [AZD5153] + CC1(C)CCC(CN2CCN(c3ccc(C(=O)NS(=O)(=O)c4ccc(NCC5CCOCC5)c([N+](=O)[O-])c4)c(Oc4cnc5[nH]ccc5c4)c3)CC2)=C(c2ccc(Cl)cc2)C1 [Venetoclax] (first compound max 1 µM, 7x7, partner max 1 µM); -0.0861
CCN(CCO)CCCOc1ccc2c(Nc3cc(CC(=O)Nc4cccc(F)c4)[nH]n3)ncnc2c1 [AZD2811] + C[C@@H]1COCCN1C2=NC(=NC(=C2)C3(CC3)[S@](=N)(=O)C)C4=C5C=CNC5=NC=C4 [AZD6738] (first compound max 1 µM, 7x7, partner max 10 µM); -0.0386
